B1: Far upstream element-binding protein 1, residues 98 to 169; numbered along this chain, Q96AE4 (parent)
chain: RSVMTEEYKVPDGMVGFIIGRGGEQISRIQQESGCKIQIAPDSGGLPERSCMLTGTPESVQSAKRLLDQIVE

# Variants of: B1
# method_summary: abundance fitness (aPCA) (normalised: wild type 0, dead -1); higher = more abundant; growth selection in yeast, the domain comes from the species named
# condition_context: Homo sapiens
experimental_endpoint: abundance fitness

>  <sequence_string>
RSVMTEEYKVPDGMVGFIIGRGGEQISRIQQESGCKIQIAPDSGGLPERSCMLTGTPESVQGAKRLLDQIVE [S62G]

>  <experimental_endpoint>
abundance fitness

>  <result>
-0.01

$$$$
>  <sequence_string>
RSVMTEEYKVPDGMVGFIIGRGGEQISRIQQESGCKIQIAPDSGGLPHRSCMLTGTPESVQSAKRLLDQIVE [E48H]

>  <experimental_endpoint>
abundance fitness

>  <result>
-0.114

$$$$
>  <sequence_string>
RSVMTEEYKVPDGMVGFIIMRGGEQISRIQQESGCKIQIAPDSGGLPERSCMLTGTPESVQSAKRLLDQIVE [G20M]

>  <experimental_endpoint>
abundance fitness

>  <result>
-0.174

$$$$
>  <sequence_string>
ASVMTEEYKVPDGMVGFIIGRGGEQISRIQQESGCKIQIAPDSGGLPERSCMLTGTPESVQSAKRLLDQIVE [R1A]

>  <experimental_endpoint>
abundance fitness

>  <result>
-0.125

$$$$
>  <sequence_string>
RSVMTEEYKVPDGMVGFIIGRGGEQISRIQQESGCKIQIAPDSGGLPETSCMLTGTPESVQSAKRLLDQIVE [R49T]

>  <experimental_endpoint>
abundance fitness

>  <result>
-0.068

$$$$
>  <sequence_string>
RSVMFEEYKVPDGMVGFIIGRGGEQISRIQQESGCKIQIAPDSGGLPERSCMLTGTPESVQSAKRLLDQIVE [T5F]

>  <experimental_endpoint>
abundance fitness

>  <result>
-0.006

$$$$
>  <sequence_string>
RSVMTEEYKVPDGMVGFIIGRGGEQISRIQQESGCKIQIAPDSGGLPCRSCMLTGTPESVQSAKRLLDQIVE [E48C]

>  <experimental_endpoint>
abundance fitness

>  <result>
-0.119

$$$$
>  <sequence_string>
RSVMTEEYKVPDGMVGFIIGRGGEQISRIQQESGCKIQIAPDSGGLGERSCMLTGTPESVQSAKRLLDQIVE [P47G]

>  <experimental_endpoint>
abundance fitness

>  <result>
-0.019

$$$$
>  <sequence_string>
RSVMTEEYKVPDGMVGFIIGRGGEQISRIQQESGCKIQIAVDSGGLPERSCMLTGTPESVQSAKRLLDQIVE [P41V]

>  <experimental_endpoint>
abundance fitness

>  <result>
-0.111

$$$$
>  <sequence_string>
RSVMTEEYKVPDGMVGFIIGRGGEQISRIQQESGCKIQIAPDSGGLPERSCMLNGTPESVQSAKRLLDQIVE [T54N]

>  <experimental_endpoint>
abundance fitness

>  <result>
-0.069

$$$$
>  <sequence_string>
RSVMTEEQKVPDGMVGFIIGRGGEQISRIQQESGCKIQIAPDSGGLPERSCMLTGTPESVQSAKRLLDQIVE [Y8Q]

>  <experimental_endpoint>
abundance fitness

>  <result>
-0.2

$$$$
>  <sequence_string>
RSVMTEEYQVPDGMVGFIIGRGGEQISRIQQESGCKIQIAPDSGGLPERSCMLTGTPESVQSAKRLLDQIVE [K9Q]

>  <experimental_endpoint>
abundance fitness

>  <result>
-0.033

$$$$
>  <sequence_string>
RSVMTEEYKVPDGMVGFIIGRGGEQISRIQQESGCKIQIAPDSGGLPERSCMLSGTPESVQSAKRLLDQIVE [T54S]

>  <experimental_endpoint>
abundance fitness

>  <result>
-0.027

$$$$
>  <sequence_string>
RSVMTEEYKVPDGKVGFIIGRGGEQISRIQQESGCKIQIAPDSGGLPERSCMLTGTPESVQSAKRLLDQIVE [M14K]

>  <experimental_endpoint>
abundance fitness

>  <result>
-0.066

$$$$
>  <sequence_string>
RSVMTEEYKVPDGMVGFIIGRGGEQISRIQQESGCKIQIAPDSGGLPERSCMLTGTPESFQSAKRLLDQIVE [V60F]

>  <experimental_endpoint>
abundance fitness

>  <result>
-0.558

$$$$
>  <sequence_string>
RSVLTEEYKVPDGMVGFIIGRGGEQISRIQQESGCKIQIAPDSGGLPERSCMLTGTPESVQSAKRLLDQIVE [M4L]

>  <experimental_endpoint>
abundance fitness

>  <result>
-0.033

$$$$
>  <sequence_string>
RSVMTEEYKVPDGMVGFIIGRGGEQISRIQQVSGCKIQIAPDSGGLPERSCMLTGTPESVQSAKRLLDQIVE [E32V]

>  <experimental_endpoint>
abundance fitness

>  <result>
-0.05

$$$$
>  <sequence_string>
RSVMTEEYKVPDGMVGFIIGRGGEQASRIQQESGCKIQIAPDSGGLPERSCMLTGTPESVQSAKRLLDQIVE [I26A]

>  <experimental_endpoint>
abundance fitness

>  <result>
-0.132

$$$$
>  <sequence_string>
RSVMTEEYKVPDGMVGFIIGRGGEQISRIQQESGCKIQIAPDSGGLPERSCMLTGTPESIQSAKRLLDQIVE [V60I]

>  <experimental_endpoint>
abundance fitness

>  <result>
0.025

$$$$
>  <sequence_string>
RPVMTEEYKVPDGMVGFIIGRGGEQISRIQQESGCKIQIAPDSGGLPERSCMLTGTPESVQSAKRLLDQIVE [S2P]

>  <experimental_endpoint>
abundance fitness

>  <result>
-0.064

$$$$
>  <sequence_string>
RSVMTEEYKVPDGMVGFIIGRGGEQISRIQQESGCKIQIAPNSGGLPERSCMLTGTPESVQSAKRLLDQIVE [D42N]

>  <experimental_endpoint>
abundance fitness

>  <result>
-0.031

$$$$
>  <sequence_string>
RSVMTEEYKVPDGMVGFIIGRGGEQISRIQQESGCDIQIAPDSGGLPERSCMLTGTPESVQSAKRLLDQIVE [K36D]

>  <experimental_endpoint>
abundance fitness

>  <result>
-0.02

$$$$
